Assay: Cell Viability - SH-SY5Y (AID 544);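 further: cells exposed to compound for 40 hours; nearly all actives have a fitted effect of over 55% in size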
Conditions: SH-SY5Y neuroblastoma cell viability; series mostly up to 92.2 µM
Records with an inconclusive call do not appear. Activity calls are given as the source filed them. The call rests on the fitted dose curve; in most records, active means well fitted cell-killing curve with a large enough effect; inconclusive means small, poorly fitted or top-dose-only effect; inactive means flat fitted curve, though single readings scatter.
Hi there, use one of these labels in your reply, thanks! T = active, F = inactive

{"chemical.structure": "COc1ccccc1O", "class": "F"}
{"chemical.structure": "[Cl][In]([Cl])[Cl]", "class": "F"}

## Input Identify the outcome logged in this assay for the compound shown: NC(=O)c1ncn([C@@H]2O[C@H](CO)[C@@H](O)[C@H]2O)n1
## Output T

## Input Identify the outcome logged in this assay for the compound shown: COC(=O)C1=C(C)NC(C)=C(C(=O)OC)C1c1ccccc1[N+](=O)[O-]
## Output T
